Molecular target: CYP3A4 (Homo sapiens)
Construct: Pooled human microsomes and selective CYP probe substrates were used; from tissue; host or cells: pooled human liver microsomes
Sequence (P08684 whole entry): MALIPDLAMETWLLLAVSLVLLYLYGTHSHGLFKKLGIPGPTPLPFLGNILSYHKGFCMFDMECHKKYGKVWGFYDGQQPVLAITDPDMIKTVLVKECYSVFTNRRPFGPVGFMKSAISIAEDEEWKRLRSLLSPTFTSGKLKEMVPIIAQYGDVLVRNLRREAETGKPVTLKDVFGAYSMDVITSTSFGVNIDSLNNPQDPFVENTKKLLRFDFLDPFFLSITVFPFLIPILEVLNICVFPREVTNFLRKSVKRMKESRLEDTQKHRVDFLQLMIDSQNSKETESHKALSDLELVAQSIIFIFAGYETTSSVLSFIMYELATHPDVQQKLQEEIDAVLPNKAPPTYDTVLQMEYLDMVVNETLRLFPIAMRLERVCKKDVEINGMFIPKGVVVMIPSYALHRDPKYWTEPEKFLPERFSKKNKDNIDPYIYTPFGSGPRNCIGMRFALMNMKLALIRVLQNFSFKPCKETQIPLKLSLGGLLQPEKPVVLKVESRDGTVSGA
Experiment: Time-dependent inhibition of CYP3A4 in human liver microsomes (testosterone and midazolam probes)
Format: in vitro ADME
Conditions: CYP3A4-T (testosterone probe substrate), 50 μM, fold change
REPORTED_ENDPOINT: (% Activity NADPH T0)/(% Activity NADPH T30)
One number for each entry.

Take a look at these entries with their results.
INSERT INTO assay_data (compound, observed_result) VALUES
  ('C[C@H]1CC[C@H](N2CC(=O)N(Cc3ccc(F)c(F)c3)C3(CN(C=O)C3)C2=O)CC1', 0.8),
  ('CC(C)N1CC(=O)N(Cc2ccc(Cl)c(F)c2)C2(CN(c3cccnn3)C2)C1=O', 1.0);

Hi, could you look up (% Activity NADPH T0)/(% Activity NADPH T30) for each item in my list?
1. C[C@H]1CC[C@H](N2CC(=O)N(Cc3ccc(Cl)cc3)C3(CN(C(N)=O)C3)C2=O)CC1
2. CC(C)N1CC(=O)N(Cc2ccc(C(F)(F)F)cc2)C2(CN(c3cccnn3)C2)C1=O
3. C[C@H]1CC[C@H](N2CC(=O)N(Cc3ccc(F)c(Cl)c3)C3(CN(C(N)=O)C3)C2=O)CC1
4. O=C1[C@H](C2COC2)N(Cc2ccc(C(F)(F)F)cc2)C(=O)CN1c1ncc(Cl)cc1F [Comparator C, reference compound]

Result string:
1.1
0.9
1.0
1.8

Hi, could you look up (% Activity NADPH T0)/(% Activity NADPH T30) for each item in my list?
1. C[C@H]1CC[C@H](N2CC(=O)N(Cc3ccc(F)c(F)c3)C3(CN(C(N)=O)C3)C2=O)CC1
2. Cc1cc(CN2C(=O)CN([C@H]3CC[C@H](C)CC3)C(=O)C23CN(C(N)=O)C3)ccc1F

Result string:
1. 1.4
2. 1.4
